- Test system: tobacco cutworm
- Method Description: Test 1: Effect on Tobacco Cutworm (leaf immersion), mortality after 24 hours
- Format: in vivo
- Protocol Conditions: 20 ppm, second-instar larvae, 25° C
As shown below, each of these molecules has a reported mortality at 20 ppm value.
Answer in %, number only, no unit symbol.

Provide one value: measured mortality at 20 ppm of "CC(C)(COCc1cccc(Oc2ccccc2)c1)c1ccc(C#N)cc1" 100

Return mortality at 20 ppm for the following molecule: CCC(C)(COCc1cccc(Oc2ccccc2)c1)c1ccc(Cl)cc1 (stereo not shown) 100

Provide one value: measured mortality at 20 ppm of "CCOc1ccc(C(C)(C)COCc2cccc(Oc3ccccc3)c2)cc1OCC" 100

Identify the reported mortality at 20 ppm for the following entry. "CC(C)(COCc1cccc(Oc2ccccc2)c1)c1ccc(I)cc1" 90

Fill in mortality at 20 ppm for record "CC(C)(COCc1cccc(Oc2ccccc2)c1)c1ccc(F)cc1" 100

Using the record for "CCOc1c(C)cc(C(C)(C)COCc2cccc(Oc3ccccc3)c2)cc1C" , state its measured mortality at 20 ppm. 100

###

Catalogue of molecules with associated mortality at 20 ppm
- Tested on: tobacco cutworm
- Method Description: Test 1: Effect on Tobacco Cutworm (leaf immersion), mortality after 24 hours
- Type: in vivo
- Protocol Conditions: 20 ppm, second-instar larvae, 25° C

See these solved cases before continuing.
>>> df
                                   molecule  reported_value
0  CCOc1ccc(C(C)(CC)COCc2cccc(Oc3ccccc3)c2)cc1 (centres unmarked) [Compound 103]            100%
1  CC(C)(COCc1cccc(Oc2ccccc2)c1)c1ccc(Cl)cc1 [Compound 49]            100%
2  CC(C)(COCc1cccc(Oc2ccccc2)c1)c1ccc(OC(Cl)=C(Cl)Cl)cc1 [Compound 92]             90%
3  CC(C)(COCc1cccc(Oc2ccccc2F)c1)c1ccc(Cl)cc1 [Compound 14]            100%

# next molecule below
Quote mortality at 20 ppm reported for CCOc1ccc(C(C)(C)CSCc2cccc(Oc3ccccc3)c2)cc1 [Compound 95] please. 100%

###

- Test system: two-spotted spider mite
- Method Description: Test 6: Effect on Two-Spotted Spider mite Adults
- Assay type: in vivo
- Protocol Conditions: Tetranychus urticae; 100 ppm; adults; 24 hours; 25° C; read-out: Mortality (%)
Measured Endpoint: mortality at 100 ppm (%)
Number only, in %; omit the unit.

Sample records with mortality at 100 ppm:
In [3]: df
Out[3]:
                                   molecule     measured_endpoint  units_of_measure  reported_value
0  CCCCOc1ccc(C(C)(C)COCc2cccc(Oc3ccccc3)c2)cc1 [Compound 69]  mortality at 100 ppm                 %              60
1  COc1ccc(Oc2cccc(COCC(C)(C)c3ccc(Cl)c(Cl)c3)c2)cc1 [Compound 41]  mortality at 100 ppm                 %             100
2  CCOCc1ccc(C(C)(C)COCc2cccc(Oc3ccccc3)c2)cc1 [Compound 82]  mortality at 100 ppm                 %              90

For CC(C)(COCc1cccc(Oc2ccc(F)cc2)c1)c1ccc(OC(F)F)cc1 [Compound 11] , write its mortality at 100 ppm. 100

Give the reported mortality at 100 ppm for this molecule. CC(C)(COCc1cccc(Oc2ccc(F)cc2)c1)c1ccc(Cl)cc1 [Compound 6] 100
